# Run Description: Selectivity index, IC50 for vero cells to MIC for Mycobacterium tuberculosis H37Rv
# Format: functional
Value Kind: Selectivity index
When you answer, write just the number.

Reference set (3 entries):
[[record]]
compound = "COc1ccc(C(c2ccc(OCCN3CCCC3)cc2)c2cc3ccccc3c3ccccc23)cc1 (centres undefined)"
value = 20

[[record]]
compound = "COc1ccc(C(c2ccc(OCCN3CCCCC3)cc2)c2cc3ccccc3c3ccccc23)cc1 (centres undefined)"
value = 10

[[record]]
compound = "CCN(CC)CCOc1ccc(C(c2ccc(OC)cc2)c2cc3ccccc3c3ccccc23)cc1 (centres undefined)"
value = 20


Proceed to the following item.
In: I would be grateful if you could share the reported Selectivity index for COc1ccc(C(c2ccc(OCCN3CCCCC3)cc2)c2cn(S(=O)(=O)c3ccccc3)c3ccccc23)cc1 (centres undefined) .
Out: 10
